# measurementDescription: Inhibition of potato 5-LOX using linoleic acid as substrate assessed as hydroperoxides production after 5 mins by enzyme immuno assay
# Design: species or system Solanum tuberosum
Exercise: state measured pIC50 for each of the molecules provided.
Please treat pIC50 as minus the base-10 logarithm of the molar concentration.

Task: Look up pIC50: COc1ccc(C(=O)/C=C/c2ccc(C(=O)N3CCCCC3)cc2)c(O)c1
Result: 5.17

Task: Look up pIC50: COc1ccc(C(=O)/C=C/c2ccc(C(=O)N3CCN(C)CC3)cc2)c(O)c1
Result: 5.10

Task: Look up pIC50: COc1ccc(C(=O)/C=C/c2ccc(C(=O)O)cc2)c(O)c1
Result: 4.52

Task: Look up pIC50: O=C(/C=C/c1ccc(O)cc1)c1ccc(O)cc1O [ISOLIQUIRITIGENIN]
Result: 4.73

Task: Look up pIC50: CCOCCCOc1ccc(/C=C/C(=O)c2ccc(OC)cc2O)cc1OC
Result: 4.91

Task: Look up pIC50: CCCCCCCCCCCCNC(=O)c1ccc(/C=C/C(=O)c2ccc(OC)cc2O)cc1
Result: 4.80

Task: Look up pIC50: COc1ccc(C(=O)/C=C/c2ccc(C(=O)N(C)c3ccccc3)cc2)c(O)c1
Result: 4.69

Task: Look up pIC50: COc1ccc(C(=O)/C=C/c2cc(OC)c(OC)cc2OC)c(O)c1
Result: 4.85

Task: Look up pIC50: COc1ccc(C(=O)/C=C/c2ccc(OCCCOc3ccccc3)c(OC)c2)c(O)c1
Result: 4.89

Task: Look up pIC50: COc1ccc(C(=O)/C=C/c2ccc(C(=O)Nc3ccccc3OC)cc2)c(O)c1
Result: 4.60

Task: Look up pIC50: COc1ccc(C(=O)/C=C/c2cc(Br)c(OCc3ccccc3)c(OC)c2)c(O)c1
Result: 4.94

Task: Look up pIC50: COc1ccc(C(=O)/C=C/c2ccc(C(=O)N3CCOCC3)cc2)c(O)c1
Result: 5.21

Task: Look up pIC50: COc1ccc(C(=O)/C=C/c2ccc(C(=O)Nc3ccc(C)cc3C)cc2)c(O)c1
Result: 4.79

Task: Look up pIC50: COc1ccc(C(=O)/C=C/c2ccc(C(=O)NCc3ccccc3)cc2)c(O)c1
Result: 4.74

Task: Look up pIC50: COC(=O)c1ccc(/C=C/C(=O)c2ccc(OC)cc2O)cc1
Result: 4.45

Task: Look up pIC50: COc1ccc(C(=O)/C=C/c2ccc(C(=O)Nc3cc([N+](=O)[O-])ccc3O)cc2)c(O)c1
Result: 4.94

Task: Look up pIC50: CCCNC(=O)c1ccc(/C=C/C(=O)c2ccc(OC)cc2O)cc1
Result: 4.89

Task: Look up pIC50: CC(Cc1ccc(O)c(O)c1)C(C)Cc1ccc(O)c(O)c1 (configuration not stated) [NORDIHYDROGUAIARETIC ACID]
Result: 4.91

Task: Look up pIC50: CCOCCOc1cccc(/C=C/C(=O)c2ccc(OC)cc2O)c1
Result: 4.77

Task: Look up pIC50: COc1ccc(C(=O)/C=C/c2ccc(C(=O)NCCc3ccccc3)cc2)c(O)c1
Result: 4.85

Task: Look up pIC50: COc1ccc(C(=O)/C=C/c2ccc(C(=O)Nc3ccccc3O)cc2)c(O)c1
Result: 4.78

Task: Look up pIC50: COc1ccc(C(=O)/C=C/c2ccc(C(=O)NC(C)C)cc2)c(O)c1
Result: 4.66

Task: Look up pIC50: CCOCCOc1ccc(/C=C/C(=O)c2ccc(OC)cc2O)cc1
Result: 5.01

Task: Look up pIC50: COc1ccc(C(=O)/C=C/c2cc(OC)c(OC)c(OC)c2)c(O)c1
Result: 4.99

Task: Look up pIC50: COc1ccc(C(=O)/C=C/c2ccc(C(=O)N3CCCC3)cc2)c(O)c1
Result: 4.98

Task: Look up pIC50: COc1ccc(C(=O)/C=C/c2ccc(OCc3ccccc3)cc2)c(O)c1
Result: 4.99

Task: Look up pIC50: COc1ccc(/C=C/C(=O)c2ccc(OC)cc2O)cc1
Result: 4.80
